- subject.of.test: human carbonic anhydrase 9 (CAIX) (human, UniProt Q16790 38-459)
- procedure.text: FACS competition on HT-29 cells against tracer 3BP-2776; pIC50 category C = pIC50 6.1-7.0
- Experimental: CAIX-expressing human HT-29 colorectal cancer cells (DSMZ, RRID: CVCL_0320) were cultured in McCoys's 5A modified medium (Biochrom, #F1015) including 10% fetal calf serum (FCS), 2 mM L-glutamine, 100 U/ml penicillin and 100 μg/mL streptomycin. […] Cells were washed twice with ice-cold FACS buffer and analyzed in an Attune NxT flow cytometer (Thermo Fisher). Median fluorescence intensities (MFI) of the APC/Cy5-channel were calculated by Attune NxT software.
Starred links: 1 amine or outer side, 2 acyl side, 3 side chain; linkers in the order of their positions; H or OH if unused. Positions of bridges follow the written chain, without caps; N, C: chain ends. Non-standard residues stand in square brackets, D forms with d. mXylylene = c1cc(C[*:1])cc(C[*:2])c1
assay.readout: pIC50

Item Ac-VYC[dE]GDWLTWQC-NH2 (linker 3-12 via mXylylene; SMILES CC(=O)N[C@H](C(=O)N[C@@H](Cc1ccc(O)cc1)C(=O)N[C@H]1CSCc2cccc(c2)CSC[C@@H](C(N)=O)NC(=O)[C@H](CCC(N)=O)NC(=O)[C@H](Cc2c[nH]c3ccccc23)NC(=O)[C@H]([C@@H](C)O)NC(=O)[C@H](CC(C)C)NC(=O)[C@H](Cc2c[nH]c3ccccc23)NC(=O)[C@H](CC(=O)O)NC(=O)CNC(=O)[C@@H](CCC(=O)O)NC1=O)C(C)C) [3BP-3045] has what recorded pIC50?
6.1 to 7 pic50
